Values were extracted from ChEMBL document CHEMBL1140610.

Reported IC50 by item:
Target: Interstitial collagenase (Homo sapiens, UniProt P03956)
Sequence (P03956 whole entry): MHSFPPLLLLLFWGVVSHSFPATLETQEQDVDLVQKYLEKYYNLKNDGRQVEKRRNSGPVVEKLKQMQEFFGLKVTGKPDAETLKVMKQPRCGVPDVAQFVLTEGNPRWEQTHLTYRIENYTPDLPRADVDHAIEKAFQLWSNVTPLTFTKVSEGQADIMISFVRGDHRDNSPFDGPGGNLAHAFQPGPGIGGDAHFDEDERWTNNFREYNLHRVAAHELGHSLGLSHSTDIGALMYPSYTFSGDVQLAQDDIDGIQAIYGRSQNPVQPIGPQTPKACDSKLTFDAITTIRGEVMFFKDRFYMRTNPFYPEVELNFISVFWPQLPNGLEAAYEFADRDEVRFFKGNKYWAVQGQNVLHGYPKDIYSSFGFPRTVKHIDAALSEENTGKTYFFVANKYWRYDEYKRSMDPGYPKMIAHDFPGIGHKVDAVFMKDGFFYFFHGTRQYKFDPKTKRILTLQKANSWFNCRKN
Conditions: read-out: log(1/IC50) (converted)
Assay Metric: IC50 (µM)

[[record]]
molecule = "CNC(=O)[C@@H](NC(=O)C(CCC(F)(F)F)CP(=O)(O)Cc1ccc(Cc2ccccc2)cc1)C(C)(C)C (some centres undefined)"
quantitative_result = 0.0447

[[record]]
molecule = "CNC(=O)[C@@H](NC(=O)C(CC1CCCCC1)CP(=O)(O)Cc1ccc(Cc2ccccc2)cc1)C(C)(C)C (some centres undefined)"
quantitative_result = 1.82

[[record]]
molecule = "CNC(=O)[C@@H](Cc1ccc(OC)cc1)NC(=O)C(CC(C)C)CP(=O)(O)Cc1cccc(-c2ccccc2)c1 (some centres undefined)"
quantitative_result = 5.13

[[record]]
molecule = "CNC(=O)[C@@H](NC(=O)C(CC(C)C)CP(=O)(O)Cc1ccc(Cc2ccccc2)cc1)C(C)(C)C (some centres undefined)"
quantitative_result = 0.0603

